Molecular target: T1, human SIRPαBIT expressed on cells (human, UniProt P78324 31-504)
T1 construct: endogenous on U937 cells or transiently expressed on ExpiCHO-S cells; in the SHP-1 assay a ProLink-tagged form on Jurkat cells; also called huSIRPαBIT; U937 cells (huSIRPαBIT)
T1 sequence (P78324 31-504 limits assumed): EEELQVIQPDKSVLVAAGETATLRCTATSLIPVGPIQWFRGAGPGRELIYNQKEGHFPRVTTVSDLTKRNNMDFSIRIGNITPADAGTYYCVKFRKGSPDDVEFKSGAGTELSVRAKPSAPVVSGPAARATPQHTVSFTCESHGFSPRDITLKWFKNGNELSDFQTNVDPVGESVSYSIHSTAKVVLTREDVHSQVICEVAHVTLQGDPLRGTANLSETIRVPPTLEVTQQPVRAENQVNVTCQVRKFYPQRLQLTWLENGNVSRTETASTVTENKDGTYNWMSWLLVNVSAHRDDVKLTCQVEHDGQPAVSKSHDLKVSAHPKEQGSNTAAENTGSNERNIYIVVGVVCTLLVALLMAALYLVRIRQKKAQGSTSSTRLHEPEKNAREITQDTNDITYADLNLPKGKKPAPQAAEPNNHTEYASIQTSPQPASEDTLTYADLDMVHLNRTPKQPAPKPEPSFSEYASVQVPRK
Test: flow cytometry, U937 cells
Lab note - cut at 0.09 µg/mL for EC50: Fulfilled if strictly below, Not fulfilled if not.

3F9-LALA (3F9 mouse-human chimeric IgG1-kappa, LALA) (antibody, V domains shown) VH: EVKLVESGGGLVKPGGSLKLSCAASGFTFSSYAMSWVRQTPEKRLEWVATISDYGGSYTYYPDSVKGRFTISRDNAKYTLYLQMSSLRSEDTALYYCARPPYDDYYGGFAYWGQGTLVTVSA VL: DIVLTQSPASLAVSLGQRATISCRASKSVSSSGYSYMHWYQQKPGQPPKLLIYLASNLESGVPARFSGSGSGTDFTLNIHPVEEEDAATYYCQHNRELPCTFGGGTKLEIKR
Not fulfilled

(Q) Would you kindly verify if EC50 of AB119-LALA (AB119 human IgG1-kappa, LALA) (antibody, V domains shown) VH: VQLLESGGGVVQPGGSLRLSCAASGFSFSNFAMTWVRQAPGEGLEWVSTIGSGDTYYADSVKGRFTISRDNSKNTLYLQMNSLRAEDTAVYYCAKDSTVSWSGDFFDYWGLGTLVTVSS VL: EIVLTQSPATLSVSPGERATFSCRASQNVKNDLAWYQQRPGQAPRLLIYAARIRETGIPERFSGSGSGTEFTLTITSLQSEDFAVYYCQQYYDWPPFTFGGGTKVEIKR is strictly less than 0.09 µg/mL?
(A) Fulfilled

(Q) Would you kindly verify if EC50 of AB25-LALA (AB25 humanized IgG1-kappa, LALA) (antibody, V domains shown) VH: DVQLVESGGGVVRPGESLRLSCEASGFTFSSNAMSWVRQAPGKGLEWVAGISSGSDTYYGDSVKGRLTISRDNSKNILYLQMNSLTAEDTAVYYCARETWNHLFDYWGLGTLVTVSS VL: SYELTQPPSVSVSPGQTARITCSGGSYSSYYYAWYQQKPGQAPVTLIYSDDKRPSNIPERFSGSSSGTTVTLTISGVQAEDEADYYCGGYDQSSYTNPFGGGTKLTVLR is strictly less than 0.09 µg/mL?
(A) Fulfilled

(Q) Would you kindly verify if EC50 of 1H9 humanized IgG1-kappa, HC-N297A (antibody, V domains shown) VH: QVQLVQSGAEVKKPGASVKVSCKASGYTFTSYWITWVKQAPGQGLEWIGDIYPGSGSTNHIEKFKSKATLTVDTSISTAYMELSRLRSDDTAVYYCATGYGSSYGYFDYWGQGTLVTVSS VL: DIQMTQSPSSLSASVGDRVTITCRASENIYSYLAWYQQKPGKAPKLLIYTAKTLAEGVPSRFSGSGSGTDFTLTISSLQPEDFATYYCQHQYGPPFTFGQGTKLEIKR is strictly less than 0.09 µg/mL?
(A) Fulfilled
